meta.source: patent US12180193B2

target: BRAF V600E (Homo sapiens, UniProt P15056, V600E); construct: expressed in transfected cells; experiment: Cellular assay of target protein degradation, T-Rex 293 cells stably transfected with HA-BRAF_V600E (HA immunofluorescence, high content imaging); assay type: cell-based; details: maximum degradation observed, T-Rex 293 HA-BRAF V600E
Sequence (P15056 whole entry V600E): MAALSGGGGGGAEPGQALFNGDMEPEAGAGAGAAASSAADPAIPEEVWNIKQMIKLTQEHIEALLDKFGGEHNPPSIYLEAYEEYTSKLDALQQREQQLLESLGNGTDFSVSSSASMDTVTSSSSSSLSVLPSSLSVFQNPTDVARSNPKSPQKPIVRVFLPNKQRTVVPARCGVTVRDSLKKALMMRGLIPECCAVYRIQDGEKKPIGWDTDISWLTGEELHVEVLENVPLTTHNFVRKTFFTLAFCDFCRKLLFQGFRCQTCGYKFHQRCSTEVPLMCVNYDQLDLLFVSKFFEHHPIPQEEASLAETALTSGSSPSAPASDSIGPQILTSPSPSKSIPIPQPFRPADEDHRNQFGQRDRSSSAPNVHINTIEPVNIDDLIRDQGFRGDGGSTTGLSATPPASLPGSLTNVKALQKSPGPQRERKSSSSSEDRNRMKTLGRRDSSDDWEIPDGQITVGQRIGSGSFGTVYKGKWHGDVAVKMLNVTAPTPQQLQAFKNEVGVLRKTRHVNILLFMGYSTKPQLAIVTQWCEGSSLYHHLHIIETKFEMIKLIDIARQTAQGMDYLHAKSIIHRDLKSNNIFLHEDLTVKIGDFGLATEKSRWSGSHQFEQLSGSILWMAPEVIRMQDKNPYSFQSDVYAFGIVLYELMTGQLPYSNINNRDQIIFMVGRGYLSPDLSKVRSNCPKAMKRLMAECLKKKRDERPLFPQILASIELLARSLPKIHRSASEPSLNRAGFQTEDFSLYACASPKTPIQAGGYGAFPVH
readoutKind: Dmax

Example cases with answers are listed next.
COc1cc(N2CC3(CN(CCc4ccc(-c5cnc6[nH]cc(C(=O)c7c(F)ccc(NS(=O)(=O)N8CC[C@@H](F)C8)c7F)c6c5)cc4)C3)C2)ccc1C(=O)NC1CCC(=O)NC1=O (stereo partly drawn) : 35 to 70%
O=C1CCC(N2Cc3cc(C4CCN(CCOc5ccc(-c6cnc7[nH]cc(C(=O)c8c(F)ccc(NS(=O)(=O)N9CC[C@@H](F)C9)c8F)c7c6)cc5)CC4)ccc3C2=O)C(=O)N1 (stereo partly drawn) : 35 to 70%

Challenge: Given the molecule O=C1CCC(N2Cc3cc(CN4CCN(c5ccc(-c6cnc7[nH]cc(C(=O)c8c(F)ccc(NS(=O)(=O)N9CC[C@@H](F)C9)c8F)c7c6)cc5)C[C@H]4CO)ccc3C2=O)C(=O)N1 (stereo partly drawn) , what is its reported Dmax?
Response given: < 35%
